molecular target: Vasopressin V2 receptor (Homo sapiens); experiment: Displacement of [3H]Arg-vasopressin from human recombinant vasopressin V2 receptor expressed in HEK293 cells; assay type: cell-based
Sequence (P30518 whole entry): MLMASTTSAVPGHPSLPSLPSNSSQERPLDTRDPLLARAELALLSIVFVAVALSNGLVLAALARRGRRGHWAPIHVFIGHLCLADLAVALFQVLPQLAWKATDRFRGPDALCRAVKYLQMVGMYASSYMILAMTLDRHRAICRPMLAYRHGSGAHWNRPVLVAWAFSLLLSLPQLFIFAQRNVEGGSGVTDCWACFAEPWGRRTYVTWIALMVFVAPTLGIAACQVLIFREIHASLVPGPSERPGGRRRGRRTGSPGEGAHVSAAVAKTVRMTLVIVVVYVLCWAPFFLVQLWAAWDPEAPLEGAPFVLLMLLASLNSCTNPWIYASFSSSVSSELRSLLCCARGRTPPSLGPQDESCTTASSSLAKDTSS
I'd appreciate it if you marked entries TRUE when IC50 is lower than 80 nM and FALSE when it is not.

CNCC1=CC2(CC1)CCN(C(=O)c1ccc(NC(=O)c3ccccc3-c3ccccc3)cc1)c1ccccc1C2 (stereo unspecified)
TRUE
CN(C)CCNC(=O)C1=C[C@@]2(CC1)CCN(C(=O)c1ccc(NC(=O)c3ccccc3-c3ccccc3)cc1)c1ccccc1C2
TRUE
O=C(O)C1=CC2(CC1)CCN(C(=O)c1ccc(NC(=O)c3cc(F)ccc3Cl)cc1)c1ccccc1C2 (stereo unspecified)
TRUE

query: Say whether its IC50 is strictly beneath 80 nM. Entry: COC(=O)C1=CC2(CC1)CCN(C(=O)c1ccc(NC(=O)c3cc(F)ccc3Cl)cc1)c1ccccc1C2 (stereo unspecified)
result: FALSE

query: Say whether its IC50 is strictly beneath 80 nM. Entry: `COc1cc(C(=O)N2CC[C@]3(C=C(C(=O)O)CC3)Cc3ccccc32)ccc1NC(=O)c1cc(F)ccc1Cl`
result: TRUE

query: Say whether its IC50 is strictly beneath 80 nM. Entry: COc1cc(C(=O)N2CCC3(C=C(C(=O)O)CC3)Cc3ccccc32)ccc1NC(=O)c1cc(F)ccc1Cl (stereo unspecified)
result: FALSE

====

biological target: Vasopressin V1a receptor (Homo sapiens, UniProt P37288); assay: Antagonist activity at human vasopressin V1a receptor expressed in HEK293 cells assessed as inhibition of Arg-vasopressin-induced intracellular calcium level; format: functional, cell-based
Sequence (P37288 whole entry): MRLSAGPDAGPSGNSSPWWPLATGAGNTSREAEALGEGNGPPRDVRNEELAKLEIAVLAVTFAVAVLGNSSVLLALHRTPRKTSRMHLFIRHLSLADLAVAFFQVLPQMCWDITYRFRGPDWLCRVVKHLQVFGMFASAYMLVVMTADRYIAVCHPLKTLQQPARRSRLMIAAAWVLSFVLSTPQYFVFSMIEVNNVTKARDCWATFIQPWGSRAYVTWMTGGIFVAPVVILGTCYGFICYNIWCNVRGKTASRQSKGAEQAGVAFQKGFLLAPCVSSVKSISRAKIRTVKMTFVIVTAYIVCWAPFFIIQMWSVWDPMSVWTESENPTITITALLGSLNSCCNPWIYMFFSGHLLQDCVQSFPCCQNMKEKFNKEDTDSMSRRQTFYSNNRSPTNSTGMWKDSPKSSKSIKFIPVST
I'd appreciate it if you could supply log10 of IC50 values for the items below.
Form field - Quantity: IC50; Unit: nM; Scale: log10

Previously resolved entries follow.
CN(C)CCNC(=O)C1=C[C@@]2(CC1)CCN(C(=O)c1ccc(NC(=O)c3ccccc3-c3ccccc3)cc1)c1ccccc1C2
1.65
O=C(Nc1ccc(C(=O)N2CCC3(C=C(CO)CC3)Cc3ccccc32)cc1)c1ccccc1-c1ccccc1 (centres undefined)
0.95
COC(=O)C1=CC2(CC1)CCN(C(=O)c1ccc(NC(=O)c3cc(F)ccc3Cl)cc1)c1ccccc1C2 (centres undefined)
2.28
O=C(O)C1=CC2(CC1)CCN(C(=O)c1ccc(NC(=O)c3cc(F)ccc3Cl)cc1)c1ccccc1C2 (centres undefined)
2.89
COc1cc(C(=O)N2CCC3(C=C(C(=O)O)CC3)Cc3ccccc32)ccc1NC(=O)c1cc(F)ccc1Cl (centres undefined)
1.95

Batch request: log10 of IC50 per item, same order as input.
1. COC(=O)C1=CC2(CC1)CCN(C(=O)c1ccc(NC(=O)c3ccccc3F)cc1)c1ccccc1C2 (centres undefined)
2. CNCC1=CC2(CC1)CCN(C(=O)c1ccc(NC(=O)c3ccccc3-c3ccccc3)cc1)c1ccccc1C2 (centres undefined)
3. COc1cc(NC(=O)c2cc(F)ccc2C)ccc1C(=O)N1CCC2(C=C(C(=O)O)CC2)Cc2ccccc21 (centres undefined)

result:
2.11
2.80
4.06

====

target: UniProt:P30518; experiment: Displacement of [3H]Arg-vasopressin from human recombinant vasopressin V2 receptor expressed in HEK293 cells at 100 nM; assay type: cell-based
I'd appreciate it if you could supply Activity values for the items below.
Give bare numbers, in %.

O=C(O)C1=CC2(CC1)CCN(C(=O)c1ccc(NC(=O)c3ccccc3F)cc1)c1ccccc1C2 (stereo not given)
15
COC(=O)C1=CC2(CC1)CCN(C(=O)c1ccc(NC(=O)c3ccccc3F)cc1)c1ccccc1C2 (stereo not given)
23
Cc1ccc(F)cc1C(=O)Nc1ccc(C(=O)N2CCC3(C=C(CO)CC3)Cc3ccccc32)c(Cl)c1 (stereo not given)
66
Cc1ccc(F)cc1C(=O)Nc1ccc(C(=O)N2CCC3(C=C(C(=O)O)CC3)Cc3ccccc32)c(Cl)c1 (stereo not given)
67

Field: next compound
query: Please look at this compound and report its Activity: CNCC1=CC2(CC1)CCN(C(=O)c1ccc(NC(=O)c3cc(F)ccc3C)cc1Cl)c1ccccc1C2 (stereo not given)
result: 17

====

assay: Oral bioavailability in rat; assay type: ADME, organism-based; conditions: in vivo
measured_endpoint: bioavailability
Just so you know, I need the unit written after the number.

query: Please look at this compound and report its bioavailability: `COc1cc(C(=O)N2CC[C@]3(C=C(C(=O)O)CC3)Cc3ccccc32)ccc1NC(=O)c1cc(F)ccc1Cl`
result: 68%

====

experiment: Half life in rat plasma; type: ADME, organism-based
measured_endpoint: half-life (h)
Answers are plain numbers, in h.

query: Please look at this compound and report its half-life: `COc1cc(C(=O)N2CC[C@]3(C=C(C(=O)O)CC3)Cc3ccccc32)ccc1NC(=O)c1cc(F)ccc1Cl`
result: 8.7

====

assay: Half life in cynomolgus monkey plasma; format: ADME, organism-based, Macaca fascicularis
measured_endpoint: half-life (h)
Numbers only, in h.

query: Please look at this compound and report its half-life: `COc1cc(C(=O)N2CC[C@]3(C=C(C(=O)O)CC3)Cc3ccccc32)ccc1NC(=O)c1cc(F)ccc1Cl`
result: 10.9
